# targetOfAssay: Xanthine dehydrogenase/oxidase (Bos taurus, UniProt P80457)
# Sequence (P80457 whole entry): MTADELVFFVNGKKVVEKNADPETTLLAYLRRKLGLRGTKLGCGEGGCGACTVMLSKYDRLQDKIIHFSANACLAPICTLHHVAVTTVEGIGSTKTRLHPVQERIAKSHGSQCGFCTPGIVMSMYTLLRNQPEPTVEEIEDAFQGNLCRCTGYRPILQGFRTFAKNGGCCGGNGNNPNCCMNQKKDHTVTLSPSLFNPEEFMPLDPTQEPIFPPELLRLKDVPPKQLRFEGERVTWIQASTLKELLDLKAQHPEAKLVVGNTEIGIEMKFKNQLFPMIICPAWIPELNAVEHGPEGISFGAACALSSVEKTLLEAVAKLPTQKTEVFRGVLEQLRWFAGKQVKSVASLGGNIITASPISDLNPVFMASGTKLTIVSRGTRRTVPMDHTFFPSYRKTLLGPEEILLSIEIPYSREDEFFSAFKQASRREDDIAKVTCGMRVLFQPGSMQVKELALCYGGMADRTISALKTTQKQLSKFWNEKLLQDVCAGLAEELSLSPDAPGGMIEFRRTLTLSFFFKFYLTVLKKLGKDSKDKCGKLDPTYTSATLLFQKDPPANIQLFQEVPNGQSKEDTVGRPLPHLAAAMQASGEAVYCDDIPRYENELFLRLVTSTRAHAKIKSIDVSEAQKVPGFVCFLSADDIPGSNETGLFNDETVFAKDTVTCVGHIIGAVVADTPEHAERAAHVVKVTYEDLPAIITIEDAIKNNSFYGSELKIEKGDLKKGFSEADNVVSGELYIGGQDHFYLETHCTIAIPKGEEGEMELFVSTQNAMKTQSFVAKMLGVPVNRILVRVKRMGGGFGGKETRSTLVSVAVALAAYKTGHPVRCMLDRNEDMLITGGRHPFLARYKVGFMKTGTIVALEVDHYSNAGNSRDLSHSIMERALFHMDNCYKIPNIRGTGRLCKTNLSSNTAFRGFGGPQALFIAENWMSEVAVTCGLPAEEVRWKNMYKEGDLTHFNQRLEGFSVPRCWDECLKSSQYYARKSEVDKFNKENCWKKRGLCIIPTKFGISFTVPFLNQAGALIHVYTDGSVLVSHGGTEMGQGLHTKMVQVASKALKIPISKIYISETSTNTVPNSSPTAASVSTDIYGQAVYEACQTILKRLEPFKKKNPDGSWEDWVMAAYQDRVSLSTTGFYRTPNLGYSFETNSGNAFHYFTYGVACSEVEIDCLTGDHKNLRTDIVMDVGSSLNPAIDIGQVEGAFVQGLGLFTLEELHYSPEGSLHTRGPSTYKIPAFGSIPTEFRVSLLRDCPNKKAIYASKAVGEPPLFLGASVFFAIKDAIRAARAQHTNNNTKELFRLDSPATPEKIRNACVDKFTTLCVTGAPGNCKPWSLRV
# assayOverview: Inhibition of cow milk xanthine oxidase at 50 ug/mL
# conditions: cattle
propertyName: inhibition at 50 µg/mL (%)

Please review the following examples before continuing.
compound	targetOfAssay	propertyName	measuredValue
O=c1cc(-c2ccc(O)c(-c3c(O)cc(O)c4c(=O)cc(-c5ccc(O)cc5)oc34)c2)oc2cc(O)cc(O)c12	Xanthine dehydrogenase/oxidase (Bos taurus, UniProt P80457)	inhibition at 50 µg/mL	100
O=c1c(O[C@@H]2OC[C@@H](O)[C@H](O)[C@H]2O)c(-c2ccc(O)c(O)c2)oc2cc(O)cc(O)c12	Xanthine dehydrogenase/oxidase (Bos taurus, UniProt P80457)	inhibition at 50 µg/mL	33.1
O=C1CC(c2ccc(O)c(O)c2)Oc2c1c(O)cc(O)c2[C@@H]1C(=O)c2c(O)cc(O)cc2O[C@H]1c1ccc(O)cc1 (stereo partly specified)	Xanthine dehydrogenase/oxidase (Bos taurus, UniProt P80457)	inhibition at 50 µg/mL	97.2
COc1c2c(cc3occ(-c4ccc(O)cc4)c(=O)c13)OCO2	Xanthine dehydrogenase/oxidase (Bos taurus, UniProt P80457)	inhibition at 50 µg/mL	0

(I) COc1cc(-c2oc3cc(O)cc(O)c3c(=O)c2O[C@@H]2O[C@H](CO[C@@H]3O[C@@H](C)[C@H](O)[C@@H](O)[C@H]3O)[C@@H](O)[C@H](O)[C@H]2O)ccc1O [NARCISSIN]
(II) COc1c(O[C@@H]2O[C@H](CO)[C@@H](O)[C@H](O)[C@H]2O)cc2occ(-c3ccc(O)cc3)c(=O)c2c1O
Please indicate which has the smaller reported inhibition at 50 µg/mL: I , or II . Reply briefly: the label of your chosen item.
II
(II: 0%, I: 22.2%)
